# Tested on: CAKI-1 renal
# test-details: NCI tumour cell line growth inhibition, 48 h
measurement-type: TGI

Look up TGI: c1ccc(N=C(Nc2ccccc2)N2CCCCC2)cc1
> 100 µM

Look up TGI: O=C(CC1(O)C(=O)Nc2c(Cl)ccc(Cl)c21)c1ccc2ccccc2c1 (stereo not given)
16.5 µM

Look up TGI: O=[N+]([O-])c1nccn1CC(O)CN1CC1 (stereo not given)
> 100 µM

Look up TGI: Cc1c(-c2c(-c3ccc(F)o3)sc3ncnc(O[C@H](Cc4ccccc4OCc4ccnn4CC(F)(F)F)C(=O)O)c23)ccc(OCCN2CCN(C)CC2)c1Cl
19.2 µM

Look up TGI: O=C(CC(C(=O)c1cccs1)c1ccsc1)c1cccs1 (stereo not given)
> 100 µM

Look up TGI: CC(=O)OCC(OC(C)=O)C(OC(C)=O)C(OC(C)=O)C(C=NN(C(C)=O)S(=O)(=O)c1ccc(/C=C2\NC(=O)N(C)C2=O)cc1)OC(C)=O (stereo not given)
> 100 µM

Look up TGI: CCOC(=O)C(/C=N\C(=S)Nc1ccc(Cl)c(Cl)c1)=C(/O)c1ccccc1
84.9 µM

Look up TGI: O=C1C(N2CCNCC2)=C(Cl)C(=O)c2ncccc21
> 10 µM

Look up TGI: CC(C)=CCNc1ncnc2nc[nH]c12
> 100 µM

Look up TGI: COc1c(OC)c(OC)c2c(c1OC)c(=O)c1ccccc1n2C
> 100 µM

Measured values drawn from PubChem BioAssay (NCI) for this set.
